Listed next: entries and their corresponding Arsenic (As) Adsorption rate.
- assay-method-text: Heavy metal removal ability test in contaminated soil (ICP-MS), arsenic
- cond: content 0.5%; relative to EDTA control
Could you give me the number in %? Just the number is fine.

Entry C1CNCCNCCNCCN1 , Arsenic (As) Adsorption rate reported as 168

// Arsenic (As) Adsorption rate value for O=C(O)CN1CCCN(CC(=O)O)CCN(CC(=O)O)CCCN(CC(=O)O)CC1 : 168

# Arsenic (As) Adsorption rate (compound: O=C(O)c1cncc(N2CCCN(c3cncc(C(=O)O)c3)CCN(c3cncc(C(=O)O)c3)CCCN(c3cncc(C(=O)O)c3)CC2)c1 ) is 152

O=C(O)c1ccc(N2CCCN(c3ccc(C(=O)O)cc3)CCN(c3ccc(C(=O)O)cc3)CCCN(c3ccc(C(=O)O)cc3)CC2)cc1 yielded Arsenic (As) Adsorption rate of 156

// field: Arsenic (As) Adsorption rate; key: O=C(O)c1ccc(N(CCN(CCN(c2ccc(C(=O)O)o2)c2ccc(C(=O)O)o2)c2ccc(C(=O)O)o2)CCN(c2ccc(C(=O)O)o2)c2ccc(C(=O)O)o2)o1 ; value = 212

Recorded Arsenic (As) Adsorption rate (compound O=C(O)c1ccc(N2CCN(c3ccc(C(=O)O)cc3)CCN(c3ccc(C(=O)O)cc3)CCN(c3ccc(C(=O)O)cc3)CC2)cc1 ): 168

The compound identified as O=C(O)CN(CCN(CCN(CC(=O)O)CC(=O)O)CC(=O)O)CCN(CC(=O)O)CC(=O)O registered its Arsenic (As) Adsorption rate at 192

---

- assay-method-text: Heavy metal removal ability test in contaminated soil (ICP-MS), arsenic
- cond: content 1.0%; relative to EDTA control
Values of Arsenic (As) Adsorption rate strictly less than 200% map to T, and values of at least 200% map to F.

Solved cases (5 shown):
compound	assigned-category
O=C(O)c1ccc(N(CCN(CCN(c2ccc(C(=O)O)o2)c2ccc(C(=O)O)o2)c2ccc(C(=O)O)o2)CCN(c2ccc(C(=O)O)o2)c2ccc(C(=O)O)o2)o1	F
O=C(O)c1ccc(N2CCCN(c3ccc(C(=O)O)o3)CCN(c3ccc(C(=O)O)o3)CCCN(c3ccc(C(=O)O)o3)CC2)o1	T
O=C(O)c1ccc(N2CCN(c3ccc(C(=O)O)cc3)CCN(c3ccc(C(=O)O)cc3)CCN(c3ccc(C(=O)O)cc3)CC2)cc1	T
O=C(O)CN1CCCN(CC(=O)O)CCN(CC(=O)O)CCCN(CC(=O)O)CC1	T
O=C(O)CN1CCN(CC(=O)O)CCN(CC(=O)O)CCN(CC(=O)O)CC1	T

A record lists O=C(O)c1cncc(N2CCN(c3cncc(C(=O)O)c3)CCN(c3cncc(C(=O)O)c3)CCN(c3cncc(C(=O)O)c3)CC2)c1 . Is its Arsenic (As) Adsorption rate below 200%?
T

Quick check: Arsenic (As) Adsorption rate of O=C(O)c1cncc(N2CCCN(c3cncc(C(=O)O)c3)CCN(c3cncc(C(=O)O)c3)CCCN(c3cncc(C(=O)O)c3)CC2)c1 under 200%?
T

Lab note: confirm whether the reported Arsenic (As) Adsorption rate for this compound is below 200%, equality not counting. compound: O=C(O)c1ccc(N2CCN(c3ccc(C(=O)O)o3)CCN(c3ccc(C(=O)O)o3)CCN(c3ccc(C(=O)O)o3)CC2)o1
T

In the record for O=C(O)c1ccc(N2CCCN(c3ccc(C(=O)O)cc3)CCN(c3ccc(C(=O)O)cc3)CCCN(c3ccc(C(=O)O)cc3)CC2)cc1 , is Arsenic (As) Adsorption rate less than 200%?
T

Record NCCNCCNCCN [Trientine, Triethylenetetramine, reference compound] : is its Arsenic (As) Adsorption rate strictly below 200%?
F

---

- Test system: human skin
- assay-method-text: Skin irritation test of active ingredient (patch method, CTFA guidelines)
- Format: in vivo
- cond: content 0.5 wt %; 24 h patch
measure: Degree of irritation
Please state the value as a number alone, without comment.

molecule	measured-on	Degree of irritation
O=C(O)CN1CCCN(CC(=O)O)CCN(CC(=O)O)CCCN(CC(=O)O)CC1 [Embodiment 9]	human skin	0
O=C(O)c1cncc(N2CCCN(c3cncc(C(=O)O)c3)CCN(c3cncc(C(=O)O)c3)CCCN(c3cncc(C(=O)O)c3)CC2)c1 [Embodiment 11]	human skin	0
C1CNCCNCCNCCN1 [Cyclen, 1,4,7,10-tetraazacyclododecane]	human skin	0
O=C(O)CN(CCN(CCN(CC(=O)O)CC(=O)O)CC(=O)O)CCN(CC(=O)O)CC(=O)O [Embodiment 1]	human skin	0.05
O=C(O)c1ccc(N2CCN(c3ccc(C(=O)O)o3)CCN(c3ccc(C(=O)O)o3)CCN(c3ccc(C(=O)O)o3)CC2)o1 [Embodiment 8]	human skin	0

Lab entry: human skin assay, molecule NCCNCCNCCN [Trientine, Triethylenetetramine, reference compound] , Degree of irritation = 0.05

Item O=C(O)c1ccc(N2CCCN(c3ccc(C(=O)O)cc3)CCN(c3ccc(C(=O)O)cc3)CCCN(c3ccc(C(=O)O)cc3)CC2)cc1 [Embodiment 10] ; assay system human skin; Degree of irritation reported as 0

---

Test result (number of subject) (++) listing for selected compounds.
- System: human skin
- assay-method-text: Skin irritation test of active ingredient (patch method, CTFA guidelines)
- Type: in vivo
- cond: content 1.0 wt %; 20 people, 24 h patch; (++) more reddened and swollen

compound	Test result (number of subject) (++)
C1CNCCNCCNCCN1 [Cyclen, 1,4,7,10-tetraazacyclododecane]	0

Entry O=C(O)c1cncc(N2CCN(c3cncc(C(=O)O)c3)CCN(c3cncc(C(=O)O)c3)CCN(c3cncc(C(=O)O)c3)CC2)c1 [Embodiment 7] — recorded Test result (number of subject) (++) = 0

---

- assay-method-text: Heavy metal removal ability test in contaminated soil (ICP-MS), arsenic
- cond: content 0.5%; relative to EDTA control
measure: Arsenic (As) Adsorption rate
Kindly write the number and append the unit.

In the examples that follow, each entry is paired with its recorded Arsenic (As) Adsorption rate.
O=C(O)c1ccc(N2CCCN(c3ccc(C(=O)O)o3)CCN(c3ccc(C(=O)O)o3)CCCN(c3ccc(C(=O)O)o3)CC2)o1 164%
O=C(O)c1ccc(N2CCN(c3ccc(C(=O)O)o3)CCN(c3ccc(C(=O)O)o3)CCN(c3ccc(C(=O)O)o3)CC2)o1 156%

# input for lookup
The compound identified as O=C(O)CN1CCN(CC(=O)O)CCN(CC(=O)O)CCN(CC(=O)O)CC1 registered its Arsenic (As) Adsorption rate at 164%

---

Listing of recorded Test result (number of subject) (+) by entry.
- System: human skin
- assay-method-text: Skin irritation test of active ingredient (patch method, CTFA guidelines)
- Assay type: in vivo
- cond: content 1.0 wt %; 20 people, 24 h patch; (+) apparent reddening
// response body must contain only the number

Sample answers from the record:
O=C(O)CN(CCN(CCN(CC(=O)O)CC(=O)O)CC(=O)O)CCN(CC(=O)O)CC(=O)O 0
O=C(O)CN1CCCN(CC(=O)O)CCN(CC(=O)O)CCCN(CC(=O)O)CC1 0
O=C(O)c1ccc(N2CCCN(c3ccc(C(=O)O)o3)CCN(c3ccc(C(=O)O)o3)CCCN(c3ccc(C(=O)O)o3)CC2)o1 0

Now turn to the next compound.
The measured Test result (number of subject) (+) associated with O=C(O)c1ccc(N2CCCN(c3ccc(C(=O)O)cc3)CCN(c3ccc(C(=O)O)cc3)CCCN(c3ccc(C(=O)O)cc3)CC2)cc1 reads 0

---

The entries below come with measured Test result (number of subject) (−) values attached.
- Test system: human skin
- assay-method-text: Skin irritation test of active ingredient (patch method, CTFA guidelines)
- Assay type: in vivo
- cond: content 1.0 wt %; 20 people, 24 h patch; (−) no erythema
- Experimental: A filter paper disk was placed in an 8 mm diameter, 10 panels of pin chamber. After 24 hours, the pin chamber was removed, and skin conditions were visually observed. The degree and grade for skin irritation were calculated according to the following Equation 2, and the results are shown in Table 4 below. [Criteria for Skin Irritation] […]
Hey, just send me the number, nothing else.

Guide cases for Test result (number of subject) (−), answers given:
compound	Test result (number of subject) (−)
O=C(O)c1ccc(N(CCN(CCN(c2ccc(C(=O)O)cc2)c2ccc(C(=O)O)cc2)c2ccc(C(=O)O)cc2)CCN(c2ccc(C(=O)O)cc2)c2ccc(C(=O)O)cc2)cc1	19
O=C(O)CN1CCN(CC(=O)O)CCN(CC(=O)O)CCN(CC(=O)O)CC1	19
NCCNCCNCCN [Trientine, Triethylenetetramine, reference compound]	17
O=C(O)c1ccc(N(CCN(CCN(c2ccc(C(=O)O)o2)c2ccc(C(=O)O)o2)c2ccc(C(=O)O)o2)CCN(c2ccc(C(=O)O)o2)c2ccc(C(=O)O)o2)o1	19
O=C(O)c1ccc(N2CCN(c3ccc(C(=O)O)o3)CCN(c3ccc(C(=O)O)o3)CCN(c3ccc(C(=O)O)o3)CC2)o1	18

Per the record, O=C(O)CN(CCN(CCN(CC(=O)O)CC(=O)O)CC(=O)O)CCN(CC(=O)O)CC(=O)O has Test result (number of subject) (−) of 16

compound O=C(O)c1cncc(N2CCCN(c3cncc(C(=O)O)c3)CCN(c3cncc(C(=O)O)c3)CCCN(c3cncc(C(=O)O)c3)CC2)c1 , Test result (number of subject) (−) observed: 18

The value of Test result (number of subject) (−) measured for the compound O=C(O)c1cncc(N2CCN(c3cncc(C(=O)O)c3)CCN(c3cncc(C(=O)O)c3)CCN(c3cncc(C(=O)O)c3)CC2)c1 turned out to be 20

Recorded Test result (number of subject) (−) (compound O=C(O)c1ccc(N2CCCN(c3ccc(C(=O)O)o3)CCN(c3ccc(C(=O)O)o3)CCCN(c3ccc(C(=O)O)o3)CC2)o1 ): 19
